Parameter: Assay (% w/w). Scope: all listed entries.
Experimental details: Active ingredient assay on storage, SCB239-12 (Table 3)
Format: physicochemical
Protocol conditions: 1 month storage, 0° C.

Compound	Assay (% w/w)
CCCCCCCC(=O)Oc1c(Br)cc(C#N)cc1Br [Bromoxynil, Bromoxynil Octanoate]	31.08
COc1nn(C(=O)[N-]S(=O)(=O)c2ccccc2OC(F)(F)F)c(=O)n1C.[Na+] [Flucarbazone, Flucarbazone Sodium]	1.81
CCCCCC(C)OC(=O)COc1ccc(Cl)c2cccnc12 (centres unmarked)	0.35
CCCCCCC(C)OC(=O)COc1nc(F)c(Cl)c(N)c1Cl (centres unmarked)	11.25
CCCCC(CC)COC(=O)COc1ccc(Cl)cc1C (centres unmarked)	33.65

###

Experimental details: Active ingredient assay on storage, SCB239-12 (Table 3)
Type: physicochemical
Protocol conditions: 2 month storage, 40° C.
Endpoint name: Recovery of active ingredient (% of initial assay) (% w/w)

Compound	Reported
CCCCCC(C)OC(=O)COc1ccc(Cl)c2cccnc12 (centres unmarked) [cloquintocet, Cloquintocet Mexyl]	100.02
CCCCCCCC(=O)Oc1c(Br)cc(C#N)cc1Br [Bromoxynil, Bromoxynil Octanoate]	94.28
CCCCCCC(C)OC(=O)COc1nc(F)c(Cl)c(N)c1Cl (centres unmarked) [Fluroxypyr, Fluroxypyr Meptyl]	98.36
CCCCC(CC)COC(=O)COc1ccc(Cl)cc1C (centres unmarked) [MCPA]	100.47
COc1nn(C(=O)[N-]S(=O)(=O)c2ccccc2OC(F)(F)F)c(=O)n1C.[Na+] [Flucarbazone, Flucarbazone Sodium]	99.54

###

Experimental details: Active ingredient assay on storage, SCB239-12 (Table 3)
Assay type: physicochemical
Protocol conditions: 3 month storage, 40° C.
Endpoint name: Recovery of active ingredient (% of initial assay) (% w/w)

Compound	Reported
CCCCCCCC(=O)Oc1c(Br)cc(C#N)cc1Br [Bromoxynil, Bromoxynil Octanoate]	94.07
CCCCC(CC)COC(=O)COc1ccc(Cl)cc1C (centres unmarked) [MCPA]	99.76
CCCCCC(C)OC(=O)COc1ccc(Cl)c2cccnc12 (centres unmarked) [cloquintocet, Cloquintocet Mexyl]	99.39
COc1nn(C(=O)[N-]S(=O)(=O)c2ccccc2OC(F)(F)F)c(=O)n1C.[Na+] [Flucarbazone, Flucarbazone Sodium]	95.13
CCCCCCC(C)OC(=O)COc1nc(F)c(Cl)c(N)c1Cl (centres unmarked) [Fluroxypyr, Fluroxypyr Meptyl]	99.04

###

Parameter: Assay (% w/w). Scope: all listed entries.
Experimental details: Active ingredient assay and recovery on storage (Table 2)
Assay type: physicochemical
Protocol conditions: 2 month storage, T/C

Compound	Unit	Assay (% w/w)
CCCCCCC(C)OC(=O)COc1nc(F)c(Cl)c(N)c1Cl (centres unmarked)	% w/w	11.55
CCCCCC(C)OC(=O)COc1ccc(Cl)c2cccnc12 (centres unmarked)	% w/w	0.40
CCCCCCCC(=O)Oc1c(Br)cc(C#N)cc1Br [Bromoxynil, Bromoxynil Octanoate]	% w/w	30.99
CCCCC(CC)COC(=O)COc1ccc(Cl)cc1C (centres unmarked)	% w/w	34.94
COc1nn(C(=O)[N-]S(=O)(=O)c2ccccc2OC(F)(F)F)c(=O)n1C.[Na+] [Flucarbazone, Flucarbazone Sodium]	% w/w	1.93

###

Experimental details: Active ingredient assay on storage, SCB239-12 (Table 3)
Assay type: physicochemical
Protocol conditions: 2 wks, 54° C.
Endpoint name: Assay (% w/w)

Compound	Reported
CCCCCC(C)OC(=O)COc1ccc(Cl)c2cccnc12 (stereo not drawn)	0.35
CCCCCCCC(=O)Oc1c(Br)cc(C#N)cc1Br [Bromoxynil, Bromoxynil Octanoate]	30.55
CCCCCCC(C)OC(=O)COc1nc(F)c(Cl)c(N)c1Cl (stereo not drawn)	11.26

Cited source: patent US11877574B2
